System: α7 integrin (LacZ reporter in α7+/LacZ myotubes)
assay text: Myotube α7 integrin FDG assay (Burkin assay in myotubes, 96-well)
Format: cell-based, mouse
stated conditions: 0.5 uM; SU9516 analogs, 96-well, N=3-6
Doc: threshold 1 (exclusive). Items with Burkin Assay in Myotubes, value relative to DMSO beneath it return Satisfied; others return Not satisfied.

>  <structure>
Cc1cc(C)c(/C=C2\C(=O)Nc3ccccc32)[nH]1

>  <group label>
Satisfied

$$$$

QUERY: Does the reported Burkin Assay in Myotubes, value relative to DMSO of the following molecule sit strictly below 1? O=C1Nc2ccccc2/C1=C/c1cnc(-c2ccccc2)[nH]1
RESULT: Not satisfied
